Biological target: human leukocyte Cathepsin G (Homo sapiens)
Construct: human leukocyte Cathepsin G (100 ng protein); from tissue; host or cells: human leukocytes
Sequence (P08311 21-244): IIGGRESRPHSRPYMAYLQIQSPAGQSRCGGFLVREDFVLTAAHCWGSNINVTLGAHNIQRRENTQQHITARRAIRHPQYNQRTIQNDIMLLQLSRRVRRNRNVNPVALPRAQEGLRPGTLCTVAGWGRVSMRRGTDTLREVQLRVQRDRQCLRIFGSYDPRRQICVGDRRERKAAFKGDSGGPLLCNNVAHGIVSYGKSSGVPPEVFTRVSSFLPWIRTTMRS
Assay: Cathepsin G inhibition, fluorogenic substrate, 96 well assay
Assay type: biochemical
Settings: human leukocyte cathepsin G 100 ng, 37° C., 60 min, pH 6.6
reported_metric: Amount for 50% inhibition (µg/mL)
Give the value in µg/mL but do not write µg/mL after it.

Illustrative cases are given below, each with its answer.
O=S(=O)(O)OC1C(OS(=O)(=O)O)C(OS(=O)(=O)O)C(N(Cc2cccc(CN(C3C(OS(=O)(=O)O)C(OS(=O)(=O)O)C(OS(=O)(=O)O)C(OS(=O)(=O)O)C3OS(=O)(=O)O)C3C(OS(=O)(=O)O)C(OS(=O)(=O)O)C(OS(=O)(=O)O)C(OS(=O)(=O)O)C3OS(=O)(=O)O)c2)C2C(OS(=O)(=O)O)C(OS(=O)(=O)O)C(OS(=O)(=O)O)C(OS(=O)(=O)O)C2OS(=O)(=O)O)C(OS(=O)(=O)O)C1OS(=O)(=O)O (centres unmarked) | 0.53
O=S(=O)(O)OC1C=CC(N(CCCCCCN(C2C=CC(OS(=O)(=O)O)C(OS(=O)(=O)O)C2OS(=O)(=O)O)C2C=CC(OS(=O)(=O)O)C(OS(=O)(=O)O)C2OS(=O)(=O)O)C2C=CC(OS(=O)(=O)O)C(OS(=O)(=O)O)C2OS(=O)(=O)O)C(OS(=O)(=O)O)C1OS(=O)(=O)O (centres unmarked) | 0.22
O=S(=O)(O)OC1C=CC(N(Cc2cccc(CN(C3C=CC(OS(=O)(=O)O)C(OS(=O)(=O)O)C3OS(=O)(=O)O)C3C=CC(OS(=O)(=O)O)C(OS(=O)(=O)O)C3OS(=O)(=O)O)c2)C2C=CC(OS(=O)(=O)O)C(OS(=O)(=O)O)C2OS(=O)(=O)O)C(OS(=O)(=O)O)C1OS(=O)(=O)O (centres unmarked) | 0.43
O=S(=O)(O)OC[C@H]1O[C@@](COS(=O)(=O)O)(O[C@H]2O[C@H](COS(=O)(=O)O)[C@@H](OS(=O)(=O)O)[C@H](OS(=O)(=O)O)[C@H]2OS(=O)(=O)O)[C@@H](OS(=O)(=O)O)[C@@H]1OS(=O)(=O)O [Sucrose octasulfate, reference compound] | 4.30

// query Amount for 50% inhibition value for entry O=S(=O)(O)OC1C=CC(N(Cc2ccc(CN(C3C=CC(OS(=O)(=O)O)C(OS(=O)(=O)O)C3OS(=O)(=O)O)C3C=CC(OS(=O)(=O)O)C(OS(=O)(=O)O)C3OS(=O)(=O)O)cc2)C2C=CC(OS(=O)(=O)O)C(OS(=O)(=O)O)C2OS(=O)(=O)O)C(OS(=O)(=O)O)C1OS(=O)(=O)O (centres unmarked)
0.30
